Target: 11β-hsd-1 enzyme (Homo sapiens)
Sequence (P28845 whole entry, species assumed): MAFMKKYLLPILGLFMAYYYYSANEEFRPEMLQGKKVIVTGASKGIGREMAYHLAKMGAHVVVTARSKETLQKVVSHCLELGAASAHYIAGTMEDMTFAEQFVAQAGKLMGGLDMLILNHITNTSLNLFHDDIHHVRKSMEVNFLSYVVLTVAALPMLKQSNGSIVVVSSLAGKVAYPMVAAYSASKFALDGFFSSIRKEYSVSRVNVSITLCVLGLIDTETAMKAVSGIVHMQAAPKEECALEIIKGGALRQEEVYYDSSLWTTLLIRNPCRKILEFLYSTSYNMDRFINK
Assay: biochemical
Settings: Table 1; inhibitor 0.1 μM; read-out: % Inh @ 0.1 μM
Would you mind labelling by inhibition at 0.1 µM? At or over 80% is rule met, under is rule not met.

Take a look at these entries with their results.
**Q:** Hi team, for Cc1ccc(C)n1-c1cccc(NS(=O)(=O)N2CCC(c3ccc(F)cc3)CC2)n1 , is the recorded inhibition at 0.1 µM at or above 80%?
**A:** rule met

**Q:** Quick one: Cc1cccc(NS(=O)(=O)N2CCC(F)(c3ccc(C#N)cc3)CC2)n1
**A:** rule not met

**Q:** Quick one: N#Cc1ccc(N2CCN(S(=O)(=O)Nc3cccc(CO)n3)CC2)nc1
**A:** rule met

Others:
**Q:** Hi team, for CS(=O)(=O)c1ccc2c(c1)CCN(S(=O)(=O)Nc1ccc3ccccc3n1)CC2 , is the recorded inhibition at 0.1 µM at or above 80%?
**A:** rule met

Origin of values: patent US20070027118A1
